system under test: Human (6-His)Sortilin (Homo sapiens)
Construct: purchased RnD Systems
Sequence (Q99523 78-755 limits assumed): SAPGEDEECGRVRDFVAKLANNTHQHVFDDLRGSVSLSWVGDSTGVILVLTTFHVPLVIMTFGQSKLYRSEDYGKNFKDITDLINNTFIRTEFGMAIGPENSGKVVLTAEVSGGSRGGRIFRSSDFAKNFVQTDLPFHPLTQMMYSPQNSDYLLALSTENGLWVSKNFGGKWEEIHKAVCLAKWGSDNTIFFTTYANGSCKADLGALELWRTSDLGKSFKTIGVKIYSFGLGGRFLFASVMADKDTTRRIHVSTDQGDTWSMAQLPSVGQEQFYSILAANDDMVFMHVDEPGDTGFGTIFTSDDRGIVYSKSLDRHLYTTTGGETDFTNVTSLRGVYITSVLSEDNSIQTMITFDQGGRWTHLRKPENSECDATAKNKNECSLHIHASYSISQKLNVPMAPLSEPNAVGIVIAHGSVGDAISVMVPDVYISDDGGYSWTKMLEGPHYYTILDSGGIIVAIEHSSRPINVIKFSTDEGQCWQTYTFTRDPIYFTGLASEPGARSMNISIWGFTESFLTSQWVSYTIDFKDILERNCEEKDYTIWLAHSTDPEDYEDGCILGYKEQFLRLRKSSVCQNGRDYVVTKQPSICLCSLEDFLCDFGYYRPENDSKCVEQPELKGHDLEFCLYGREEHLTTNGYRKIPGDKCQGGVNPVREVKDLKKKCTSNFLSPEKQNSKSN
protocol: Human Sortilin GCI (Grating-Coupled Interferometry) binding assay
condition description: Creoptix WAVE-RAPID, single concentration (usually 1 µM, 10 µM or 100 µM), immobilised Human (6-His)Sortilin, 1:1 kinetic binding model
Classes are defined on Kd with ranges A = under 1 µM, B = from 1 µM up to 8 µM, C = 8 µM and over

CC(C)CCC(Nc1ncnc2ccccc12)c1nnn[nH]1 (racemic) [Example 101]
C
CC(C)(C)CC(Nc1ccccc1)c1nn[nH]n1 (racemic) [Example 43]
C
Cc1cc(N[C@@H](CCC(C)(C)C)C(=O)O)ncn1 [Example 24]
A
Cc1ccc2c(NC(CCC(C)(C)C)c3nn[nH]n3)ncnc2c1 (racemic) [Example 84]
A

Field: class (Kd) — entry: CC(C)(C)CCC(Nc1ncnc2cc(F)ccc12)c1nn[nH]n1 (racemic) [Example 82]
A

Field: class (Kd) — entry: CC(C)(C)CC[C@H](Nc1cccnc1)C(=O)O [Example 31]
B

Field: class (Kd) — entry: CC(C)(C)CCC(Nc1cccc2ccccc12)c1nn[nH]n1 (racemic) [Example 35]
B

Field: class (Kd) — entry: CC(C)CC(Nc1cncc2ccccc12)c1nn[nH]n1 (racemic) [Example 46]
B

Field: class (Kd) — entry: CC(C)CCC(Nc1ncnc2ccc(F)cc12)c1nn[nH]n1 (racemic) [Example 81]
B

Field: class (Kd) — entry: CC(C)(C)CC[C@@H](Nc1cccnc1)c1nn[nH]n1 (single isomer, unassigned) [Example 100]
B

Field: class (Kd) — entry: CC(C)CC(Nc1cncnc1)c1nn[nH]n1 (racemic) [Example 49]
C

Field: class (Kd) — entry: CC(C)(C)CCC(Nc1ccccn1)c1nn[nH]n1 (racemic) [Example 68]
B

Field: class (Kd) — entry: Cc1cccc2c(N[C@@H](CCC(C)(C)C)C(=O)O)ncnc12 [Example 26]
A

Field: class (Kd) — entry: CC(C)(C)CC[C@H](Nc1cnccn1)C(=O)O [Example 4]
B

Field: class (Kd) — entry: Cc1cncc(N[C@@H](CCC(C)(C)C)C(=O)O)n1 [Example 27]
A

Provenance of the data: patent EP4428121A1
